test system: MT-4 cells (mock-infected); assay: cytotoxicity in mock-infected MT-4 cells (MTT); format: cell-based
Can you tell me log10 of CC50 for the items I'm about to list?
In plain terms, each number is the log10 of measured CC50 in µM.

Examples with their reported log10 of CC50 follow.
[
  {
    "MOLECULE": "N#Cc1ccc(Nc2nccc(Nc3c(Cl)cc(Br)c(Cl)c3Br)n2)cc1",
    "log10 of CC50": -0.40
  },
  {
    "MOLECULE": "N#Cc1ccc(Nc2nccc(NCc3ccccc3)n2)cc1",
    "log10 of CC50": 1.27
  },
  {
    "MOLECULE": "CC(=O)Nc1cc(Cc2c(Cl)cccc2Cl)nc(Nc2ccc(C#N)cc2)n1",
    "log10 of CC50": 1.70
  },
  {
    "MOLECULE": "Cc1cnc(Nc2ccc(C#N)cc2)nc1Nc1c(C)cc(C(C)(C)C)cc1C",
    "log10 of CC50": 0.97
  },
  {
    "MOLECULE": "Cc1cc(C)c(Nc2ccnc(Nc3ccc(Cl)cc3)n2)c(C)c1",
    "log10 of CC50": 0.76
  },
  {
    "MOLECULE": "Cc1cc(C)c(Nc2ccnc(Nc3ccc(C#N)cc3N)n2)c(C)c1",
    "log10 of CC50": 1.49
  },
  {
    "MOLECULE": "Cc1cnc(Nc2ccc(C#N)cc2)nc1Nc1c(C)cc(Cl)cc1C",
    "log10 of CC50": -0.40
  },
  {
    "MOLECULE": "Cc1cc(C)c(Nc2cc(N)nc(Nc3ccc(C#N)cc3)n2)c(C)c1",
    "log10 of CC50": 1.05
  }
]

Okay, here is my list. What is log10 of CC50 for each of these?
1. Cc1cc(C)c(Nc2nc(Nc3ccc(C#N)cc3)ncc2C)c(C)c1
2. CCCc1cc(Br)c(Nc2nc(Nc3ccc(C#N)cc3)ncc2C)c(Br)c1
3. N#Cc1ccc(Nc2nc(Cc3c(Cl)cccc3Cl)cc(NCC(O)CO)n2)cc1 (stereo not drawn)
4. N#Cc1ccc(Nc2nc(Cc3c(Cl)cccc3Cl)cc(NCCc3ccccn3)n2)cc1
5. N#Cc1ccc(Nc2nc(Cc3c(Cl)cccc3Cl)cc(NCCOCCO)n2)cc1

Completion:
[-0.52, 0.34, 1.77, 1.61, 1.39]

###

system: MT-4 cells (mock-infected); assay: cytotoxicity in mock-infected MT-4 cells (MTT); format: cell-based
OBSERVABLE: CC50 (µM)
Answers are plain numbers, in µM.

[
  {
    "RECORD SMILES": "Cc1cc(C)c(Nc2ccnc(Nc3ccc(C(N)=O)c(N)c3)n2)c(C)c1",
    "MEASUREMENT UNIT": "µM",
    "CC50": 29.5
  },
  {
    "RECORD SMILES": "Cc1cnc(Nc2ccc(C#N)cc2)nc1Nc1c(Br)cc(C(C)C)cc1Br",
    "MEASUREMENT UNIT": "µM",
    "CC50": 2.1
  }
]

Okay, here is my list. What is CC50 for each of these?
1. N#Cc1ccc(Nc2nccc(Nc3c(Cl)cccc3Cl)n2)cc1
2. Cc1cc(C)c(Nc2cc(Nc3ccc(C#N)cc3)nc(N)n2)c(C)c1
3. N#CCCNc1cc(Cc2c(Cl)cccc2Cl)nc(Nc2ccc(C#N)cc2)n1

Completion:
0.2
7.7
53.6
